Cited source: ChEMBL document CHEMBL1136498

System: Staphylococcus aureus
assay-info: Minimal inhibitory concentration for Staphylococcus aureus bacteria (ATCC 9604 SV) was determined by broth microdilution methodology
Format: functional
Catalogue of compounds with associated MIC
Lab book: enter the figure in µg/mL, no units written.

O=C(Nc1cc(C(F)(F)F)cc(C(F)(F)F)c1)Nc1cc(-c2ccncc2)nn1-c1ccc(C(F)(F)F)cc1 | 1.68
O=C(Nc1cc(C(F)(F)F)cc(C(F)(F)F)c1)Nc1nc(CCc2ccccc2)cs1 | 23
COCCN(CCOC)Cc1cc(NC(=O)Nc2cc(C(F)(F)F)cc(C(F)(F)F)c2)n(-c2ccc(Br)cc2)n1 | 16

MIC of CC(C)(C)c1csc(NC(=O)NCc2cccc(Cl)c2)n1 , assay on Staphylococcus aureus, is 8.1

###

Tested on: Staphylococcus aureus
assay-info: Minimal inhibitory concentration for Staphylococcus aureus bacteria (ATCC 9604 SV) was determined by broth microdilution methodology
Assay type: functional
Below, each of the compounds is paired with its reported MIC value.
Write it as a number; the unit mg/L goes unstated.

O=C(Nc1cc(Cl)cc(Cl)c1)Nc1cc(-c2ccccc2)nn1-c1ccc(C(F)(F)F)cc1 | 12.3

The compound O=C(Nc1cc(C(F)(F)F)cc(C(F)(F)F)c1)Nc1nc(-c2cccs2)cs1 , tested on Staphylococcus aureus, showed MIC of 1.31

Lab entry: Staphylococcus aureus assay, compound O=C(Nc1cc(Cl)cc(Cl)c1)Nc1cc(-c2cccs2)nn1-c1ccc(Br)cc1 , MIC = 0.847

So the reported MIC for O=C(NCc1cccc(Cl)c1)Nc1nc(C2CCCC2)cs1 , on Staphylococcus aureus, turned out to be 8.4

Staphylococcus aureus MIC of O=C(Nc1cc(C(F)(F)F)cc(C(F)(F)F)c1)Nc1cc(CO)nn1-c1ccc(Br)cc1 is 6.54

// MIC (Staphylococcus aureus) for O=C(NCc1ccc(Cl)c(Cl)c1)Nc1nc(-c2ccc(Br)cc2)cs1 = 11.4

Measured MIC (Staphylococcus aureus), entry CN[C@H](CC(C)C)C(=O)N[C@H]1C(=O)N[C@@H](CC(N)=O)C(=O)N[C@H]2C(=O)N[C@H]3C(=O)N[C@H](C(=O)N[C@H](C(=O)O)c4cc(O)cc(O)c4-c4cc3ccc4O)[C@H](O)c3ccc(c(Cl)c3)Oc3cc2cc(c3O[C@@H]2O[C@H](CO)[C@@H](O)[C@H](O)[C@H]2O[C@H]2C[C@](C)(N)[C@H](O)[C@H](C)O2)Oc2ccc(cc2Cl)[C@H]1O : 0.75

###

List of Survival values.
System: Mus musculus
assay-info: In vivo efficacy versus methicillin resistant Staphylococcus aureus in mice administered sc at 2x2mg/kg, expressed as percent survival
Format: functional
Output spec: scalar in %, unitless text.

Measured Survival (Mus musculus), entry CN[C@H](CC(C)C)C(=O)N[C@H]1C(=O)N[C@@H](CC(N)=O)C(=O)N[C@H]2C(=O)N[C@H]3C(=O)N[C@H](C(=O)N[C@H](C(=O)O)c4cc(O)cc(O)c4-c4cc3ccc4O)[C@H](O)c3ccc(c(Cl)c3)Oc3cc2cc(c3O[C@@H]2O[C@H](CO)[C@@H](O)[C@H](O)[C@H]2O[C@H]2C[C@](C)(N)[C@H](O)[C@H](C)O2)Oc2ccc(cc2Cl)[C@H]1O : 25

Entry COCCN(CCOC)Cc1cc(NC(=O)Nc2cc(C(F)(F)F)cc(C(F)(F)F)c2)n(-c2ccc(Br)cc2)n1 : Survival on Mus musculus = 0

Lab note: compound O=C(Nc1cc(C(F)(F)F)cc(C(F)(F)F)c1)Nc1cc(CO)nn1-c1ccc(Br)cc1 tested on Mus musculus; recorded Survival was 33

###

Tested on: Mus musculus
assay-info: In vivo efficacy versus methicillin resistant Staphylococcus aureus in mice administered sc at 2x20mg/kg, expressed as percent survival
Format: functional
Answer no if Survival is under 30%, and yes if it is 30% or more.

See these solved cases before continuing.
CC(C)(C)c1csc(NC(=O)NCc2cccc(Cl)c2)n1 | yes
O=C(NCc1cccc(Cl)c1)Nc1nc(C2CCCC2)cs1 | no
COCCN(CCOC)Cc1cc(NC(=O)Nc2cc(C(F)(F)F)cc(C(F)(F)F)c2)n(-c2ccc(Br)cc2)n1 | yes
O=C(Nc1cc(C(F)(F)F)cc(C(F)(F)F)c1)Nc1cc(CO)nn1-c1ccc(Br)cc1 | yes
CN[C@H](CC(C)C)C(=O)N[C@H]1C(=O)N[C@@H](CC(N)=O)C(=O)N[C@H]2C(=O)N[C@H]3C(=O)N[C@H](C(=O)N[C@H](C(=O)O)c4cc(O)cc(O)c4-c4cc3ccc4O)[C@H](O)c3ccc(c(Cl)c3)Oc3cc2cc(c3O[C@@H]2O[C@H](CO)[C@@H](O)[C@H](O)[C@H]2O[C@H]2C[C@](C)(N)[C@H](O)[C@H](C)O2)Oc2ccc(cc2Cl)[C@H]1O | yes

Please indicate if the recorded Survival for O=C(Nc1cc(C(F)(F)F)cc(C(F)(F)F)c1)Nc1cc(-c2ccncc2)nn1-c1ccc(C(F)(F)F)cc1 meets or exceeds 30%. no

Check this compound for Survival at or above 30%: CCOC(=O)c1cc(NC(=O)Nc2cc(C(F)(F)F)cc(C(F)(F)F)c2)n(-c2ccc(Br)cc2)n1 yes

###

Test system: Staphylococcus aureus
assay-info: Minimal inhibitory concentration for Staphylococcus aureus bacteria (ATCC 9604 SV) was determined by broth microdilution methodology
Type: functional
Listed here are compounds together with their documented MIC.

Some compounds with known MIC results, for comparison:
O=C(Nc1cc(C(F)(F)F)cc(C(F)(F)F)c1)Nc1cc(-c2ccccc2)nn1-c1ccc(C(F)(F)F)cc1 | < 0.838 µg/mL
CCOC(=O)c1cnn(-c2ccc(Br)cc2)c1NC(=O)Nc1cc(C(F)(F)F)cc(C(F)(F)F)c1 | < 0.848 µg/mL

Recorded result, CC(C)(C)c1cc(NC(=O)Nc2cc(Cl)cc(Cl)c2)n(-c2ccc(Br)cc2)n1 , MIC: < 0.723 µg/mL

The compound identified as O=C(Nc1ccc(F)c(C(F)(F)F)c1)Nc1nc(-c2ccc(F)c(F)c2)cs1 registered its MIC at < 0.626 µg/mL

The compound identified as O=C(Nc1cc(Cl)cc(Cl)c1)Nc1cc(-c2ccccc2)nn1-c1ccc(Cl)cc1 registered its MIC at > 22.9 µg/mL

Form: compound = O=C(Nc1ccc(SC(F)(F)F)cc1)Nc1nc(-c2ccc(F)c(F)c2)cs1 ; MIC = < 0.647 µg/mL

Record CCOC(=O)c1cc(NC(=O)Nc2cc(C(F)(F)F)cc(C(F)(F)F)c2)n(-c2ccc(Br)cc2)n1 . Reported MIC: > 14.1 µg/mL

Summary for this compound, Cc1cc(NC(=O)Nc2cc(C(F)(F)F)cc(C(F)(F)F)c2)n(-c2ccc(Br)cc2)n1 : MIC is < 0.761 µg/mL

Lookup result for O=C(Nc1ccc(Cl)c(C(F)(F)F)c1)Nc1cc(-c2ccccc2)nn1-c1ccc(C(F)(F)F)cc1 ; measured MIC: < 0.787 µg/mL

###

System: Mus musculus
assay-info: In vivo efficacy versus methicillin resistant Staphylococcus aureus in mice administered sc at 2x2mg/kg, expressed as percent survival
Type: functional
quantity-measured: Survival (%)
Express your answer in %, writing the number without its unit.

Known Survival results, listed for orientation:
O=C(NCc1cccc(Cl)c1)Nc1nc(C2CCCC2)cs1 | 25
O=C(Nc1cc(C(F)(F)F)cc(C(F)(F)F)c1)Nc1cc(-c2ccncc2)nn1-c1ccc(C(F)(F)F)cc1 | 0
CC(C)(C)c1csc(NC(=O)NCc2cccc(Cl)c2)n1 | 25

Read the next record carefully.
// assay Mus musculus, entry CCOC(=O)c1cc(NC(=O)Nc2cc(C(F)(F)F)cc(C(F)(F)F)c2)n(-c2ccc(Br)cc2)n1 , Survival value = 0
